Assay: qHTS of pediatric cancer cell lines to identify multiple opportunities for drug repurposing: Primary screen for NB-EBc1 cells (AID 1347095)
Conditions: NB-EBc1 neuroblastoma viability, CellTiter-Glo luminescence, 48 h; series mostly up to 46 µM
Experimental: Drug repurposing or repositioning has been offered as a strategy for drug development in oncology programs. This approach has special potential for childhood cancers and other rare or orphan diseases, where the expected return on new drug development has been a disincentive to pharmaceuticals. […] We employed a titration-based paradigm (quantitative high-throughput screening or qHTS), where all compounds were tested at multiple concentrations for their effect on cell viability. […]
Results filed as inconclusive are left out. Calls of active or inactive are those of the source. Calls come from the whole dose curve; as a rule, active = well fitted cell-killing curve with a large enough effect; inconclusive = small, poorly fitted or top-dose-only effect; inactive = no such curve, though single readings can be large or run the other way.
A correct response names exactly one class from TRUE for active, FALSE for inactive

Worked examples follow.
Compound	Label value
O=C1CN(/N=C/c2ccc([N+](=O)[O-])o2)C(=O)N1	FALSE
CC(C)(C)c1nnc(NS(=O)(=O)c2ccc(N)cc2)s1	FALSE
c1ccc2sc(SSc3nc4ccccc4s3)nc2c1	FALSE

Ask: Test call for this compound, please: CCOC(=O)c1ccccc1O
Reply: FALSE

Ask: Test call for this compound, please: Cc1ccc(O)c(-n2nc3ccccc3n2)c1
Reply: FALSE
